Reference for the values: paper PMC5540273

system: RSK1(Kin.Dom.1-N-terminal); construct: gene RPS6KA1; settings: concentration: 1 μM, replicates: in singlicate; n = 1;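 also: KINOMEscan kinase panel screen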
Would you mind labelling by %Inh? At or over 20% is true, under is false.

// known answers, use as guide
Determine whether measured %Inh meets or exceeds 20% for C[C@H]1CC[C@@H](C(=O)Nc2ccccc2)CN1c1cc(-c2ccc3c(N)n[nH]c3c2)nc(N)n1
false

Moving on to the next compound: COC(=O)c1cccc(NC(=O)NCCNc2ccnc(Nc3ccc(F)cc3)n2)c1
true

Moving on to the next compound: Cc1ccc(O)cc1Nc1cc(C(F)(F)F)nc2ccc(-c3ccncc3)cc12
false

Moving on to the next compound: O=C(Nc1ccccc1F)NC1CCN(c2ccnc(Nc3ccc(F)cc3)n2)C1 (centres unmarked)
false

Moving on to the next compound: CC(C)(C)OC(=O)NC1CCCN(c2cc(-c3ccc4c(N)n[nH]c4c3)nc(N)n2)C1 (centres unmarked)
true

Moving on to the next compound: FC(F)(F)c1ccc(-c2nn3ncccc3c2-c2ccnc(Nc3cccc(C(F)(F)F)c3)n2)cc1
false

Others:
Determine whether measured %Inh meets or exceeds 20% for CS(=O)(=O)CCNCc1nc(-c2ccc3ncnc(Nc4ccc(OCc5cccc(F)c5)c(Cl)c4)c3c2)cs1.Cl
true

Moving on to the next compound: Cc1cccc(-c2nc(Nc3ccc4[nH]nnc4c3)c3ccccc3n2)n1
false

Moving on to the next compound: CC(C)(C)c1ccc(-n2cnc3c(N)ncnc32)cc1
false

Moving on to the next compound: CCn1c(-c2ccncc2)nc2cnccc21
false

Moving on to the next compound: CC(C)N1CCC(n2cnc(-c3ccc(F)cc3)c2-c2ccnc(N)n2)CC1
false

Moving on to the next compound: O=c1cc(N2CCOCC2)nc2n(Cc3cccc(Cl)c3)ccn12
false

Moving on to the next compound: CSc1ccc(NC2=C(c3ccccc3Cl)C(=O)NC2=O)cc1
false

Moving on to the next compound: C[C@@H]1CCN(C(=O)CO)C[C@@H]1N(C)c1ncnc2[nH]ccc12
false

Moving on to the next compound: Cl.Fc1ccccc1COc1ccc(Nc2ncnc3ccc(-c4nnc(C(F)(F)F)o4)cc23)cc1Cl
false

Moving on to the next compound: CNc1nccc(-c2c(-c3ccc(F)cc3)ncn2C2CCN(C)CC2)n1
false

Moving on to the next compound: Fc1ccc(-c2ncn(CCCNCc3ccccc3)c2-c2ccncc2)cc1
false
